# subject.of.test: 5-Lipoxygenase (Rattus norvegicus)
# Construct: endogenous in cells; host or cells: RBL-1 (rat basophilic leukemia) cells
# Sequence (P12527 whole entry): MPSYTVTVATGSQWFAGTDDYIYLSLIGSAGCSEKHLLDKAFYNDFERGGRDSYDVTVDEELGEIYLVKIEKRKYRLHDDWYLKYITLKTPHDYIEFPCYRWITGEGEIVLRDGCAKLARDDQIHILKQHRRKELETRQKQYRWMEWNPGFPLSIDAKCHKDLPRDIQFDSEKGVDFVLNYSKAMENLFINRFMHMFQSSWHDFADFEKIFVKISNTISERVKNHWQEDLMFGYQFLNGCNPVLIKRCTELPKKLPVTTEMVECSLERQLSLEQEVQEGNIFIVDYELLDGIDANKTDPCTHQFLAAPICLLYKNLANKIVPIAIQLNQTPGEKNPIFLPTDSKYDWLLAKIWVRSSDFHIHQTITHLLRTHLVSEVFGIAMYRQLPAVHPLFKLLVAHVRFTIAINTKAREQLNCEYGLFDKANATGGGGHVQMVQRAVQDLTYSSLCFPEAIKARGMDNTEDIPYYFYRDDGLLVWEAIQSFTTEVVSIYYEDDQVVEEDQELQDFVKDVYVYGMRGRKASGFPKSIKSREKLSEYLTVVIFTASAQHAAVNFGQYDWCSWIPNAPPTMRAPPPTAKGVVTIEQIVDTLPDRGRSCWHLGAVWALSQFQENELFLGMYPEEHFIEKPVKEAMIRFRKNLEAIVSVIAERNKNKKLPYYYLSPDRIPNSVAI
# test.summary: 5-Lipoxygenase inhibiting action: 5-HETE production in rat basophilic leukemia (RBL-1) cells (HPLC)
# Type: cell-based
# test.settings: 10^-6 M, read-out: Effect of Inhibiting 5-Lipoxygenase, % Inhibition (IE)
Assignment: determine reported inhibition at 1 µM for the given molecules.
One number for each entry, in %.

[
  {
    "molecule": "Cc1c(C)c2c(c(C)c1O)CC(C)(C=Cc1ccccc1)O2 (stereo not shown)",
    "output.unit": "%",
    "inhibition at 1 µM": 99
  },
  {
    "molecule": "Cc1c(C)c2c(c(C)c1O)CC(C)(CBr)O2 (stereo not shown)",
    "output.unit": "%",
    "inhibition at 1 µM": 100
  },
  {
    "molecule": "Cc1c(C)c2c(c(C)c1O)CC(C)(CCc1ccccc1)O2 (stereo not shown)",
    "output.unit": "%",
    "inhibition at 1 µM": 100
  }
]

# evaluate next
Query string: GET /values?readout=inhibition at 1 µM&item= Cc1c(C)c2c(c(C)c1O)CC(C)(CC#N)O2 (stereo not shown)
Result string: 100
